system: Streptococcus pyogenes S-8; test: Antibacterial test (MIC), Streptococcus pyogenes S-8; format: cell-based; conditions: medium B-TSA
Parameter: Minimum inhibitory concentration (MIC). Scope: all listed entries.
measured metric: Minimum inhibitory concentration (MIC) (µg/mL)

1. CCCCCCCCN1CCN(C(=O)NC(C(=O)NC2CN(S(=O)(=O)[O-])C2=O)c2cccs2)C(=O)C1=O.[Na+] (stereo not shown) :: 1.56
2. CCN1CCN(C(=O)N[C@@H](C(=O)NC2CN(S(=O)(=O)[O-])C2=O)c2cccs2)C(=O)C1=O.[Na+] (stereo partly shown) :: 3.13
3. O=C(NC1CN(S(=O)(=O)[O-])C1=O)C(NC(=O)N1CCN(N=Cc2ccco2)C1=O)c1cccs1.[Na+] (stereo not shown) :: 0.78
4. CCN1CCN(C(=O)NC(C(=O)NC2CN(S(=O)(=O)[O-])C2=O)c2cccs2)C(=O)C1=O.[Na+] (racemic) :: 3.13

Where do the numbers come from? From patent US4822790A.
